Data credit: patent US20250340660A1

# tested-on: T1, cynomolgus CD30L expressed on HEK293 cells (cynomolgus, UniProt A0A7N9CVX7 1-234)
# T1 sequence: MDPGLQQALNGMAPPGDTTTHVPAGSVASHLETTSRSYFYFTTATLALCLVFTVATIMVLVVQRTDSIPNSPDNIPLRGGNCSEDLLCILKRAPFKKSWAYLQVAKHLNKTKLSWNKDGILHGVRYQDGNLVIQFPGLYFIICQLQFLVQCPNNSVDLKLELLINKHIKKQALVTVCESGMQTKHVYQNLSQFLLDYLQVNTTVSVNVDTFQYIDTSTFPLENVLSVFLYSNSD
# measurement-protocol: cell-based or functional assay
The label depends only on Inhibition of IL-8 release in a dual cell assay (HEK293-cyCD30L cells + K299 cells) IC50: satisfied if it is at least 400 pM, not satisfied if it is smaller.

binder	assigned-category
anti-CD30L antibody clone 1 germlined (antibody, V domains shown) VH: QVQLQESGPGLVKPSETLSLTCTVSGGSISGYYWSWIRQPPGKGLEWIGYIFYSGYTKYNPSLKSRVTISVDTSKNQFSLKLSSVTAADTAVYYCARDRWDFDYWGQGTLVTVSS VL: AIQMTQSPSSLSASVGDRVTITCRASQGIRNNLGWYQQKPGKAPKLLIYAESSLQSGVPSRFSGSGSGTDFTLTISSLQPEDFATYYCLQDFNYPYTFGQGTKLEIK	satisfied
anti-CD30L antibody clone 2 (antibody, V domains shown) VH: EVQLVESGGGLVQPGRSLRLSCAASGFNFDDYAMHWVRQAPGKGLEWVSGISWRSGNIGYAGSVKGRFTISRDNAKNSLYLQMNSLRPEDSALYYCAKDKGIGFNWNYEGFDYWGQGTLVTVSS VL: DIQMTQSPSSLSASVGDRVTITCRASQGISNHLAWFQQKPGKAPKSLIYAASSLQSGVPSKFSGSGSGTDFTLTISSLQPEDFATYYCQQYVTYPLTFGGGTKVEIK	not satisfied
anti-CD30L Reference 1 antibody (antibody, human IgG1, lambda, V domains shown) VH: QVQLQESGPGLVKPSETLSLTCTVSGGSISSYIWSWIRQPAGKGLEWIGRIYASGNTNYNPSLKSRVTISVDTSKNQFSLKLSSMTAADTAVYYCARDYRVAGTYYYYYGLDVWGQGTTVTVSS VL: QSALTQPASVSGSPGQSITISCTGTSSDVGVYDYVSWYQQHPGKAPKLMIYEVSNRPSGVSNRFSGSKSGNTASLTISGLQTEDEADYYCSSYTSRSTWVFGGGTKLTVLG	satisfied
